Biological target: TrkB
MEASUREMENT KIND: Kd

Query: # query: Kd of entry CN(C)CCC=C1c2ccccc2CCc2ccccc21
Response: ~14 µM
